Molecular target: PDE10 (UniProt Q9Y233)
Test: PDE10 enzyme inhibition, IMAP TR-FRET assay (MPDE10A7 Enzyme Activity and Inhibition)
Type: biochemical
Conditions: IC50 class against PDE10; read-out: IC50
observable: IC50

So what's the measured IC50 for this one? CC(=O)N1CC(c2nccnc2Oc2ccc(C(=O)c3nc4ccccc4[nH]3)cc2)C1 [Example 250]
< 0.025 µM

So what's the measured IC50 for this one? COc1cc(-c2nccnc2Oc2ccc(C(=O)c3nc4ccccc4[nH]3)cc2)ccn1 [Example 120]
< 0.025 µM

So what's the measured IC50 for this one? CCCOc1nccnc1Oc1ccc(C(=O)c2nc3ccccc3[nH]2)cc1 [Example 180]
1 to 5 µM

So what's the measured IC50 for this one? FCCN1CCC(c2nccnc2Oc2ccc(Nc3nc4ccccc4s3)cc2)CC1 [Example 236]
< 0.025 µM

So what's the measured IC50 for this one? COC(=O)C1CN(c2nccnc2Oc2ccc(Nc3nc4ccccc4s3)cc2)C1 [Example 83]
< 0.025 µM

So what's the measured IC50 for this one? O=C(c1ccc(Oc2nccnc2Cl)cc1)c1nc2ccccc2[nH]1 [Example 3]
1 to 5 µM

So what's the measured IC50 for this one? N#CC1CN(c2nccnc2Oc2ccc(Nc3nc4ccccc4s3)cc2)C1 [Example 93]
0.025 to 0.1 µM

So what's the measured IC50 for this one? COc1ccc(-c2nccnc2Oc2ccc(C(=O)c3nc4ccccc4[nH]3)cc2)cn1 [Example 121]
< 0.025 µM

The measured values listed here are drawn from patent US20120277209A1.
